TEST: Clearance in rat at 50 mg/kg, iv
Type: ADME, organism-based
Parameters: dose 50 mg/kg, route intravenous
CONDITION DETAILS: in vivo
REPORTED METRIC: clearance (mL/min/kg)

* C[C@@H](O)[C@H]1C(=O)N2C(C(=O)O)=C(S[C@H]3C[C@@H](C(=O)N4CC[C@H](NC(=O)CNC(=N)N)C4)N(C)C3)[C@H](C)[C@H]12 | 15.2

====

Tested on: Macaca fascicularis
TEST: AUC (0-inf) in monkey at 25 mg/kg, iv
CONDITION DETAILS: cynomolgus monkey, plasma
REPORTED METRIC: AUC(0-inf)

• C[C@@H](O)[C@H]1C(=O)N2C(C(=O)O)=C(S[C@H]3C[C@@H](C(=O)N4CC[C@H](NC(=O)CNC(=N)N)C4)N(C)C3)[C@H](C)[C@H]12 = 244 µg·h/mL
